Measured solubility of individual entries
Assay Remarks: Solubility in pH 7.4 PBS solution
Assay type: physicochemical
Use µg/mL as the unit, but write only the number.

> print(dat)
                            compound.smiles  observed.property  numeric.result
1  CC(C)(NCCCc1cc(-c2cccc(C(F)(F)F)c2)nc(C#N)n1)C(N)=O         solubility             393

Could you now consider this next compound?
What the record says about `N#Cc1nc(CCCN2CCCCC2)cc(-c2cccc(C(F)(F)F)c2)n1` : solubility is 60

----------
Assayed Target: Cathepsin B (Homo sapiens)
Assay Remarks: Inhibition of human recombinant cathepsin B
Observed Property: IC50
Be sure to follow the number with its unit.

Measured IC50 (Cathepsin B (Homo sapiens)), entry `CC(C)(NCCCc1cc(-c2cccc(C(F)(F)F)c2)nc(C#N)n1)C(N)=O` : 2510 nM

----------
Tested on: Osteoclast
Assay Remarks: Inhibition of bone resorption in rabbit osteoclasts
Format: functional, cell-based
Applied Conditions: Oryctolagus cuniculus
Observed Property: IC50 (nM)
Use nM as the unit, but write only the number.

What the record says about `N#Cc1nc(CCCNCc2nnn[nH]2)cc(-c2cccc(C(F)(F)F)c2)n1` : IC50 is 1640

----------
Measured pIC50 of individual entries
Assayed Target: Cathepsin K (Homo sapiens)
Sequence (P43235 whole entry): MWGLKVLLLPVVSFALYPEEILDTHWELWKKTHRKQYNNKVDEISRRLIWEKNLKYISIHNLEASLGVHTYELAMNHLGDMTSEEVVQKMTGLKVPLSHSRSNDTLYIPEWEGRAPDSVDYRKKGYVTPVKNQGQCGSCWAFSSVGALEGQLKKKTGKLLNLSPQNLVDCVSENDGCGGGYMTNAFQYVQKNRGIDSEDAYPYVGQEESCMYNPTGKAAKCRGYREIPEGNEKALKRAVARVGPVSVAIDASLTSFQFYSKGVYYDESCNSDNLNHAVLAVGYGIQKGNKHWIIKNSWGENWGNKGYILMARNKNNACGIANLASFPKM
Assay Remarks: Inhibition of human recombinant cathepsin K using Z-Phe-Arg-MCA substrate by fluorimetric assay
Worth noting: pIC50 values are minus log10 of concentrations stated in mol/L.

For orientation, consider the following solved cases.
> print(dat)
                            compound.smiles  observed.property  numeric.result
1  CCCc1cc(-c2cc(C(=O)N(C)Cc3ccccc3)cc(C(F)(F)F)c2)nc(C#N)n1              pIC50            8.05
2  N#Cc1nc(CCCN2CCOC[C@H]2C(N)=O)cc(-c2cccc(C(F)(F)F)c2)n1              pIC50            7.89
3  N#Cc1nc(CCC(=O)O)cc(-c2cccc(C(F)(F)F)c2)n1              pIC50            6.78
4  CCC(CC)NC(=O)CCc1cc(-c2cccc(C(F)(F)F)c2)nc(C#N)n1              pIC50            6.41

What the record says about `CCCc1cc(-c2cc(C(F)(F)F)ccc2C(=O)N(C)C)nc(C#N)n1` : pIC50 is 6.37

What the record says about `N#Cc1nc(CCCNCC(F)(F)F)cc(-c2cccc(C(F)(F)F)c2)n1` : pIC50 is 7.52

----------
Assayed Target: UniProt:P43235
Assay Remarks: Inhibition of human recombinant cathepsin K using Z-Phe-Arg-MCA substrate by fluorimetric assay
Measured pIC50 of individual entries
Worth noting: pIC50 values are minus log10 of concentrations stated in mol/L.

> print(dat)
                            compound.smiles  assayed.target  numeric.result
1  N#Cc1nc(CCCNc2ccccn2)cc(-c2cccc(C(F)(F)F)c2)n1  UniProt:P43235            8.52
2  N#Cc1nc(CCCNC2(C(N)=O)CCOCC2)cc(-c2cccc(C(F)(F)F)c2)n1  UniProt:P43235            8.30

Could you now consider this next compound?
What the record says about `COCCNCCCc1cc(-c2cccc(C(F)(F)F)c2)nc(C#N)n1` : pIC50 is 8.00
